- target_of_assay: IKZF2 (Homo sapiens (Human), UniProt Q96SW2+Q9UKS7)
- Sequence (Q9UKS7 whole entry): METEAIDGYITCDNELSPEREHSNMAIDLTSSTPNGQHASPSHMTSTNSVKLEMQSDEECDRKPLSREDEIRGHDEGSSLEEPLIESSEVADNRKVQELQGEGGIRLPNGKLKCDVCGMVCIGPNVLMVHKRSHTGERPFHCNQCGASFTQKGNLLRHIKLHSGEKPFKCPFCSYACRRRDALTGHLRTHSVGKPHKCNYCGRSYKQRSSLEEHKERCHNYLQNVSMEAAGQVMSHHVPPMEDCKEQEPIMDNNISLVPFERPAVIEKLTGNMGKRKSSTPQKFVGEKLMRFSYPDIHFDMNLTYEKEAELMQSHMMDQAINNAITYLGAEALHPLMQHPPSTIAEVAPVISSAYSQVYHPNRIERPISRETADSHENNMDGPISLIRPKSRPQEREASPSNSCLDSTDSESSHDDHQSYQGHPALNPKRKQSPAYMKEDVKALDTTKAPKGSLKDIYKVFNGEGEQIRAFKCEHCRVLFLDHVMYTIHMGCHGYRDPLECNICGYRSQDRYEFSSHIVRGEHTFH
- Sequence (Q96SW2 whole entry): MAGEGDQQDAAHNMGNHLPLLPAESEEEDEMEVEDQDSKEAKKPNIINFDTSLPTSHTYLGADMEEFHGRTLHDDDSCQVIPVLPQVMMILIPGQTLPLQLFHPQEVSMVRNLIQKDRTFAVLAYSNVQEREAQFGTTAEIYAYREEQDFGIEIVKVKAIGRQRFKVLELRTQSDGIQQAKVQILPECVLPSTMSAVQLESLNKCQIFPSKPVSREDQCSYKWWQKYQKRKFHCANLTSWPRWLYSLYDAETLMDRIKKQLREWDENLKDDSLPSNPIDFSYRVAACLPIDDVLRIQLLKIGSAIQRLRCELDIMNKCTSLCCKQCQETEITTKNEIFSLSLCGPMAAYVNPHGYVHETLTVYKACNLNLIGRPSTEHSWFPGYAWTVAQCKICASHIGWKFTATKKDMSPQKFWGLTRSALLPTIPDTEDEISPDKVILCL
- Sequence (Q16531 2-1140 partner): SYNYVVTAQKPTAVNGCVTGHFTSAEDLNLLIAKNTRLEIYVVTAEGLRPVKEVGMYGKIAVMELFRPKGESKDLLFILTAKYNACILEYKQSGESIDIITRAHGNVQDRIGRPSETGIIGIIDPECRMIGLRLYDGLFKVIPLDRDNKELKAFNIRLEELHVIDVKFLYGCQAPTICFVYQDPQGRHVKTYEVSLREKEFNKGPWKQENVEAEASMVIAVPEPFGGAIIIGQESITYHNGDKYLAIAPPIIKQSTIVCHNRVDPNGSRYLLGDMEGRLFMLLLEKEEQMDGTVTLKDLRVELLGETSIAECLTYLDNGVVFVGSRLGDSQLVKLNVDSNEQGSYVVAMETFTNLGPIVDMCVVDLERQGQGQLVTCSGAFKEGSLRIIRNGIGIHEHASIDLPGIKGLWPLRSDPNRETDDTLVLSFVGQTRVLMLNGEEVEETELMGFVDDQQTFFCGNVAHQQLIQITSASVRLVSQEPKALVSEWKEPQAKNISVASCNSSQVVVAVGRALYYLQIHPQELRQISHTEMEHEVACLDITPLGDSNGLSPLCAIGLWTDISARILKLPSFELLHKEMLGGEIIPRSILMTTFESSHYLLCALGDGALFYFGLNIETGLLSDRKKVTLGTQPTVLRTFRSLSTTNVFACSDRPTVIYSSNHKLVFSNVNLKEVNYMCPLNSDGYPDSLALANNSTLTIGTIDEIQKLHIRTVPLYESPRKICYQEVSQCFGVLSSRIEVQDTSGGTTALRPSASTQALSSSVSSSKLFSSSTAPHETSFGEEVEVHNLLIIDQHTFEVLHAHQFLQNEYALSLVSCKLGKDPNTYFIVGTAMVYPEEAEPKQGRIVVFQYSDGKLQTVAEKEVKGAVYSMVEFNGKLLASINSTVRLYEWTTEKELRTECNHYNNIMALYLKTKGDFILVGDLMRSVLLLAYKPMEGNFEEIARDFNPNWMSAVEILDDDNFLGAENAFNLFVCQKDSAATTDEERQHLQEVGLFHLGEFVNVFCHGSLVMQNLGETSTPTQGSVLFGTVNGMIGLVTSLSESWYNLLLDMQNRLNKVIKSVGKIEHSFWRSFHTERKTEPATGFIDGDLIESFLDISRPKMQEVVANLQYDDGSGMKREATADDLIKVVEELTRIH
- protocol_text: In vitro IKZF2 HiBit Assay (HEK293T Flp-in-HiBiT cells)
- Type: cell-based
- test_context: HEK293T Flp-in-HiBiT cells, 6 hrs incubation; read-out: IKZF2 HiBit DC50
endpoint_label: DC50

O=C1CCC(N2Cc3cc(-c4cc(CN5CCC6(CC5)CC6)cc5cncn45)ccc3C2=O)C(=O)N1 (stereo not shown)
10 to 100 nM
Cn1ccc2c(CN3CC4(CCC4)C3)cc(-c3ccc4c(c3)CN(C3CCC(=O)NC3=O)C4=O)nc21 (stereo not shown)
< 1 nM
CC(C)n1ccc2nc(-c3ccc4c(c3)CN(C3CCC(=O)NC3=O)C4=O)cc(CN3CCCC3)c21 (stereo not shown)
10 to 100 nM
Nc1[nH]nc2c(CN3CCCC3)cc(-c3ccc4c(c3F)CN(C3CCC(=O)NC3=O)C4=O)nc12 (stereo not shown)
1 to 10 nM
CC(C)C1CCN(Cc2cc(-c3ccc4c(c3)CN(C3CCC(=O)NC3=O)C4=O)nc3[nH]ccc23)C1 (stereo not shown)
1 to 10 nM

For the 2 molecules below, give their DC50 values.
1. O=C1CCC(N2Cc3cc(-c4cc(CN5CCC(CO)CC5)c5ccn(C6COC6)c5n4)ccc3C2=O)C(=O)N1 (stereo not shown)
2. O=C1CCC(N2Cc3cc(-c4cc(CN5CCCCC56CC6)c5ccn(C6COC6)c5n4)ccc3C2=O)C(=O)N1 (stereo not shown)

Outgoing:
1: 1 to 10 nM; 2: 1 to 10 nM
